- Tested system: T1, EsCas13d, nuclease-dead (Eubacterium siraeum, UniProt B0MS50, R295A;H300A;R849A;H854A)
- T1 sequence: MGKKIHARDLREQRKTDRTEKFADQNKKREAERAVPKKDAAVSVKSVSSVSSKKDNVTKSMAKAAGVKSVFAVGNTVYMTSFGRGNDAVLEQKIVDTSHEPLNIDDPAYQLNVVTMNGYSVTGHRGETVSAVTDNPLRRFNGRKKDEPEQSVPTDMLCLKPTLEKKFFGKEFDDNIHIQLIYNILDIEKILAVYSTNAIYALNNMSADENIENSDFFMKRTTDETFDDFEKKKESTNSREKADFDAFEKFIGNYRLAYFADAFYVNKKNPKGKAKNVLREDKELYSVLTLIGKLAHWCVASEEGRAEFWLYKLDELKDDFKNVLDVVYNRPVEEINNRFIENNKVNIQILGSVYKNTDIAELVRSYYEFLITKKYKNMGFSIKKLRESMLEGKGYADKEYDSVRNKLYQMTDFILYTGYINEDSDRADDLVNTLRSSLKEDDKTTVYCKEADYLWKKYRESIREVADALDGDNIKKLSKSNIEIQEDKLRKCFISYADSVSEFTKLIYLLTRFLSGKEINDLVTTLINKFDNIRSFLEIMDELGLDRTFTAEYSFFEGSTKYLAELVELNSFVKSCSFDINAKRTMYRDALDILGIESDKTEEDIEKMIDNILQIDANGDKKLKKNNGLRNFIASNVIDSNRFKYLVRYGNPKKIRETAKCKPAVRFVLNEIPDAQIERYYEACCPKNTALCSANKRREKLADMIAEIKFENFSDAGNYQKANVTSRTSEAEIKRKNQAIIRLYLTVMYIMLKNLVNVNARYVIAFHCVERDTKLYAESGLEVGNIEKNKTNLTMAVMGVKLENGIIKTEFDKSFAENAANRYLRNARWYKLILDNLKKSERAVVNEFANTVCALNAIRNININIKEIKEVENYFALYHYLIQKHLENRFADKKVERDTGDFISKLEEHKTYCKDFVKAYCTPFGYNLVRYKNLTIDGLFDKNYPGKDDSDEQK
- Assay: crRNA (strand 1, pre-loaded); Mg2+; 40 mM Tris-HCl pH 7.5, 150 mM NaCl, 6 mM MgCl2, 1 mM DTT, 0.1% Tween-20, 0.2 mg/ml BSA; 25 C; 10 min per concentration, then washed
- Measurement parameters: tags: His6-TwinStrep-SUMO cleaved; N-terminal SNAP kept (SNAP-Surface 488); label: 3' end held by stalled T7 RNA polymerase
Quantity name: pKd
One number for each entry, as −log10 of the molar value.

Answer for every listed entry: what is its pKd? The entries follow.
1. target 2 MT 5'PFS UUA 3'PFS ACA (mixed) RNA 1: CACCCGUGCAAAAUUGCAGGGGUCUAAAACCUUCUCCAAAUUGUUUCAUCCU RNA 2: GGGAAUGGAUCCACAUCUACGAAUUCUUAAGGAUGAAACAAUUUGGAGAAGACAAGAUCGGAAGAGCACACGU
2. target 3 insA 3' of 14,insU 3' of 5 (mixed) RNA 1: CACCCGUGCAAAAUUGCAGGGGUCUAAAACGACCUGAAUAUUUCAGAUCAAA RNA 2: GGGAAUGGAUCCACAUCUACGAAUUCGUUUUUGAUCUGAAAAUAUUCAUGGUCUGCAGAUCGGAAGAGCACACGU
3. target 2 MT 5'PFS AGA 3'PFS CUC (mixed) RNA 1: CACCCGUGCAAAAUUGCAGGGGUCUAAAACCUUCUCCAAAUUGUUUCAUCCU RNA 2: GGGAAUGGAUCCACAUCUACGAAUUCAGAAGGAUGAAACAAUUUGGAGAAGCUCAGAUCGGAAGAGCACACGU
4. target 1 insG 3' of 11,insU 3' of 7 (mixed) RNA 1: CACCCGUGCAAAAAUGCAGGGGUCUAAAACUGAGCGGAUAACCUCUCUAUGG RNA 2: GGGAAUGGAUCCACAUCUACGAAUUCGUACCAUAGAGAGGUGUAUCUCGCUCACCGAGAUCGGAAGAGCACACGU
5. target 1 insA 3' of 22,insG 3' of 7 (mixed) RNA 1: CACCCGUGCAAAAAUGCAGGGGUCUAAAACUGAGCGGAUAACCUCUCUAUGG RNA 2: GGGAAUGGAUCCACAUCUACGAAUUCGUACACAUAGAGAGGUUAUCGCGCUCACCGAGAUCGGAAGAGCACACGU
6. target 2 MT 5'PFS CAC 3'PFS CUU (mixed) RNA 1: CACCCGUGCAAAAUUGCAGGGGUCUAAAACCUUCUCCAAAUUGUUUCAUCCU RNA 2: GGGAAUGGAUCCACAUCUACGAAUUCCACAGGAUGAAACAAUUUGGAGAAGCUUAGAUCGGAAGAGCACACGU
7. target 2 MT 5'PFS UUA 3'PFS CUG (mixed) RNA 1: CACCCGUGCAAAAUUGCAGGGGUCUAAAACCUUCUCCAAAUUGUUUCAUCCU RNA 2: GGGAAUGGAUCCACAUCUACGAAUUCUUAAGGAUGAAACAAUUUGGAGAAGCUGAGAUCGGAAGAGCACACGU
8. target 2 MT 5'PFS GCG 3'PFS AGU (mixed) RNA 1: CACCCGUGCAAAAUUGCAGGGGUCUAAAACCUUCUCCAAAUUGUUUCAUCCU RNA 2: GGGAAUGGAUCCACAUCUACGAAUUCGCGAGGAUGAAACAAUUUGGAGAAGAGUAGAUCGGAAGAGCACACGU

Output line:
1: 7.43; 2: 7.16; 3: 7.93; 4: 7.60; 5: 8.06; 6: 8.64; 7: 7.62; 8: 7.94

Answer for every listed entry: what is its pKd? The entries follow.
1. target 1 insU 3' of 21,insU 3' of 18 (mixed) RNA 1: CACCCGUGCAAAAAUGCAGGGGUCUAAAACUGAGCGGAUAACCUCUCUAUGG RNA 2: GGGAAUGGAUCCACAUCUACGAAUUCGUACCUAUAUGAGAGGUUAUCCGCUCACCGAGAUCGGAAGAGCACACGU
2. target 1 U11C,G15A (mixed) RNA 1: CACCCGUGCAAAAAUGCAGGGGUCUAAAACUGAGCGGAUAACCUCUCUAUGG RNA 2: GGGAAUGGAUCCACAUCUACGAAUUCGUACCAUAGAAAGGCUAUCCGCUCACCGAGAUCGGAAGAGCACACGU

Output line:
7.28
7.57
